target: Factor Xa (Bos taurus); construct: purchased Sigma Inc. Lot 73F-9450; assay: Substrate specificity: enzyme reaction with factor Xa, colorimetric; type: biochemical, Bovine; settings: 700 nm; So = 0.4 mmol; 37° C., 5 minutes; pH 8.3; pentacyanoamineferroate
Sequence (P00743 234-492 limits assumed): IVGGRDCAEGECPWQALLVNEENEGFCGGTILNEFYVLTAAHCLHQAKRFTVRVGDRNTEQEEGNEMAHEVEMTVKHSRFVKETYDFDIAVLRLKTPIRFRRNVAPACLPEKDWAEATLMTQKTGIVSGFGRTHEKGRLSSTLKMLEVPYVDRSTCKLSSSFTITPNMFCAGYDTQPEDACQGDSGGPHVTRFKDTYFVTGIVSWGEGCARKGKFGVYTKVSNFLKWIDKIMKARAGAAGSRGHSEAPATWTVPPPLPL
Sequence (P00743 41-180 partner limits assumed): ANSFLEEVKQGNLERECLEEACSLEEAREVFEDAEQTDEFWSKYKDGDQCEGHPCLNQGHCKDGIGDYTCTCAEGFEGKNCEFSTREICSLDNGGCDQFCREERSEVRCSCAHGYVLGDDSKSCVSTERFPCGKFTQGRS
Structures can show the parent of a compound that is named as a salt.
readoutType: absorbance (O.D.) measured, FXa
Numbers only here, please. The scale is O.D..

Before answering, review these 4 worked examples.
Input line: Fill in: absorbance (O.D.) measured, FXa of N=C(N)NCCC[C@H](NC(=O)[C@@H]1CCCCN1C(=O)[C@@H]1CCC(=O)N1)C(=O)Nc1ccc(O)c(C(=O)O)c1 is ___
Output line: 0.007

Input line: Requested read-out: absorbance (O.D.) measured, FXa. Entry: CCCC[C@H](NC(=O)[C@@H]1CCC(=O)N1)C(=O)N[C@@H](CCCNC(=N)N)C(=O)Nc1ccc(O)c(C(=O)O)c1 [PS-1296, H--PyroGlu--NLeu--Arg--CHA.HCl]
Output line: 0.008

Input line: Need absorbance (O.D.) measured, FXa of CC(C)[C@H](NC(=O)[C@@H]1CCC(=O)N1)C(=O)N[C@@H](CCCNC(=N)N)C(=O)Nc1ccc(O)c(C(=O)O)c1 [PS-1293, H--PyroGlu--Val--Arg--CHA.HCl] , thanks.
Output line: 0.007

Input line: Quick one: absorbance (O.D.) measured, FXa of N=C(N)NCCC[C@H](NC(=O)CNC(=O)[C@H](N)CCC(=O)O)C(=O)Nc1ccc(O)c(C(=O)O)c1 [PS-1298, H--D--Glu--Gly--Arg--CHA.2HCl] ?
Output line: 0.004

Now examine the next entry.
Input line: Would you mind telling me what absorbance (O.D.) measured, FXa value was observed for C[C@H](NC(=O)[C@@H]1CCC(=O)N1)C(=O)N[C@@H](CCCNC(=N)N)C(=O)Nc1ccc(O)c(C(=O)O)c1 ?
Output line: 0.008

Ref: patent US5116941A
